system: Streptococcus sp.; assay: in vitro antibacterial evaluation, MIC by broth dilution; assay type: cell-based; settings: broth dilution, 18 hours at 35° C.; strain GC 4565
measure_name: MIC Streptococcus pneumoniae (GC 4565) (µg/mL)

CC(c1ccccc1)C1NC(=O)CNC(=O)C(CO)NC(=O)C(C(O)C2CNC(=N)N2C2OC(CO)C(O)C(O)C2O)NC(=O)C(C(O)C2CNC(=N)N2)NC(=O)C(Cc2ccc(OC3OC(CO)C(OC4OC5COC(c6ccsc6)OC5C(O)C4O)C(O)C3O)cc2)NC1=O (stereo not shown) [Example 133] ... 4
CC(c1ccccc1)C1NC(=O)CNC(=O)C(CO)NC(=O)C(C(O)C2CN(CCCCCCCCCCCCO)C(=N)N2C2OC(CO)C(O)C(O)C2O)NC(=O)C(C(O)C2CNC(=N)N2)NC(=O)C(Cc2ccc(OC3OC(CO)C(OC4OC(CO)C(O)C(O)C4O)C(O)C3O)cc2)NC1=O (stereo not shown) [Example 61] ... 64
CC(C)C(=O)OCC1OC(OC2C(CO)OC(Oc3ccc(CC4NC(=O)C(Cc5ccccc5)NC(=O)CNC(=O)C(CO)NC(=O)C(C(O)C5CNC(=N)N5C5OC(CO)C(O)C(O)C5O)NC(=O)C(C(O)C5CNC(=N)N5)NC4=O)cc3)C(O)C2O)C(O)C(O)C1O (stereo not shown) [Example 283a] ... 16
CC(c1ccccc1)C1NC(=O)CNC(=O)C(CO)NC(=O)C(C(O)C2CN(Cc3ccc(C(C)(C)C)cc3)C(=N)N2C2OC(CO)C(O)C(O)C2O)NC(=O)C(C(O)C2CNC(=N)N2)NC(=O)C(Cc2ccc(OC3OC(CO)C(OC4OC(CO)C(O)C(O)C4O)C(O)C3O)cc2)NC1=O (stereo not shown) [Example 60] ... 128
